Reference source for all entries: PubChem BioAssay (NCI)

# Tested on: NCI-H23 lung
# TEST_PROTOCOL: NCI tumour cell line growth inhibition, 48 h
Give measured TGI for each item. Keep answers brief.

Entry CC12CC/C(=N/NC(N)=O)C3C1CCCC32 — recorded TGI = > 100 µM

Entry CN(CC(=O)O)CC(=O)O — recorded TGI = > 100 µM

Entry COc1cc(N2CCN(C(C)C)CC2)ccc1Nc1nc(Nc2ccc(F)cc2C(=O)NCC(O)CO)c2cc[nH]c2n1 (stereo not given) — recorded TGI = > 23.3 µM

Entry C1=Nc2ccccc2Cn2nncc21 — recorded TGI = > 100 µM

Entry COc1ccc(C2CC(c3ccc(NS(=O)(=O)c4cc([N+](=O)[O-])ccc4C)cc3)=NN2S(=O)(=O)c2cc([N+](=O)[O-])ccc2C)cc1 (stereo not given) — recorded TGI = 78.7 µM

Entry O=C(/C=C\c1ccsc1)c1ccccc1 — recorded TGI = 15.6 µM

Entry C=C1C(=O)O[C@@H]2C[C@@H]1CC[C@]1(C)O[C@H]1CC/C(C)=C/CC[C@@]2(C)O — recorded TGI = 58.4 µM

Entry Cc1n[nH]c(=O)n1Nc1ccccc1 — recorded TGI = > 100 µM

Entry COC1=CC(c2ccc[nH]2)=N/C1=C\c1[nH]c(C)c(C(=O)Oc2ccccc2)c1C — recorded TGI = 1.95 µM

Entry C/C=C(\C)c1cc(=O)c2c(C)cc3c(c2o1)C(OC)(OC(C)=O)c1c(O)c(C2CC(C)(N(C)C)C(OC(C)=O)C(C)O2)cc(C2CC(N(C)C)C(OC(C)=O)C(C)O2)c1C3=O (stereo not given) — recorded TGI = 2.42 µM

Entry CC(C)(Oc1ccc(C(=O)c2ccc(Cl)cc2)cc1Cl)C(=O)N1CCN(CCO)CC1 — recorded TGI = > 10 µM

Entry Cc1ccc(N=NN(C)C(C)C(O)Cc2ccccc2)cc1 (stereo not given) — recorded TGI = > 100 µM

Entry Cc1ccc(S(=O)(=O)NN=C2C(C)(C)CC2(C)C)cc1 — recorded TGI = > 100 µM

Entry COc1ccc2nc3cc([N+](=O)[O-])ccc3c(NNc3ccc([N+](=O)[O-])cc3)c2c1 — recorded TGI = > 100 µM

Entry Cc1ccc(NC(=O)CCc2nnc3s/c(=C\c4cccc([N+](=O)[O-])c4)c(=O)n23)cc1 — recorded TGI = > 100 µM

Entry N#CC(C(=O)CCC(=O)Nc1ccc(Cl)cc1)c1ccc(Cl)cc1 (stereo not given) — recorded TGI = > 100 µM

Entry O=c1ccc2c(Cl)cccc2o1 — recorded TGI = > 100 µM

Entry CN(C)CCCOc1ccc(/C=C2/CCC/C(=C/c3ccc(OCCCN(C)C)cc3)C2=O)cc1 — recorded TGI = 3.63 µM

Entry O=C(CC(=O)N1N=C(n2ccc3ccccc32)CC1c1ccccc1)Nc1ccc(Cl)cc1 (stereo not given) — recorded TGI = > 100 µM

Entry CCC1(OC(=O)CNC)C(=O)OCc2c1cc1n(c2=O)Cc2cc3ccccc3nc2-1 (stereo not given) — recorded TGI = 0.11 µM

====

# System: KM12 colon
# TEST_PROTOCOL: NCI tumour cell line growth inhibition, 48 h
Give measured TGI for each item. Keep answers brief.

Entry CC(C)(C)[Si](C)(C)OC1[C@@H](O[Si](C)(C)C(C)(C)C)[C@@H](CNC(=O)NC(=O)NC(=O)CCl)O[C@H]1n1cnc2c(NC(=O)Nc3ccccc3)ncnc21 (some centres not stated) — recorded TGI = 6.12 µM

Entry Nc1c(C(=O)c2ccc(C#CCN3CCOCC3)cc2)cnn1-c1ccc(F)cc1 — recorded TGI = > 25 µM

Entry CC(C)(Oc1ccc(C(=O)c2ccc(Cl)cc2)cc1Cl)C(=O)N1CCN(CCO)CC1 — recorded TGI = > 10 µM

Entry C[C@]12CCCN1CC1=NNC(=O)c3cc(F)cc4[nH]c2c1c34 — recorded TGI = 30.3 µM

Entry CC(C(=O)NCCNC(=O)CCCC(=O)N(C)O)C(=O)NCCNC(=O)CCCC(=O)N(C)O — recorded TGI = > 100 µM

Entry Cc1nn(C(=O)c2ccc(Cl)cc2)c2c1C(c1ccccc1O)SC(N)=N2 (configuration not stated) — recorded TGI = > 10 µM

Entry C/C=C(\C)c1cc(=O)c2c(C)cc3c(c2o1)C(OC)(OC(C)=O)c1c(O)c(C2CC(C)(N(C)C)C(OC(C)=O)C(C)O2)cc(C2CC(N(C)C)C(OC(C)=O)C(C)O2)c1C3=O (configuration not stated) — recorded TGI = 8.24 µM

Entry CON=C1C[C@]2(C[C@@H]3C[C@@H](C/C=C(\C)C[C@@H](C)/C=C/C=C4\CO[C@@H]5[C@H](O)C(C)=C[C@@H](C(=O)O3)[C@]45O)O2)O[C@H](/C(C)=C/C(C)C)[C@H]1C — recorded TGI = 21.9 µM

Entry O=C1NC(=S)N/C1=C\c1ccc(Cl)cc1 — recorded TGI = > 100 µM

Entry CCC1(OC(=O)CNC)C(=O)OCc2c1cc1n(c2=O)Cc2cc3ccccc3nc2-1 (configuration not stated) — recorded TGI = 1.46 µM

Entry CC1OC(OC2C(OC(=O)[C@]34CCC(C)(C)CC3C3=CCC5[C@@]6(C)C[C@H](O)[C@H](OC7OC(COC8OC(CO)C(O)C(O)C8O)C(O)C(O)C7O)[C@@](C)(C(=O)O)C6CC[C@@]5(C)C3(C)CC4)OCC(O)C2O)C(O)C(O)C1OC1OCC(O)C(O)C1O (some centres not stated) — recorded TGI = > 100 µM

Entry Cc1cc(N(CCC#N)CCC#N)ccc1/C=C1N=C(/C=C/c2ccccc2)N(c2ccc(S(N)(=O)=O)cc2)C\1=O — recorded TGI = > 100 µM

Entry N#CC(C(=O)CCC(=O)Nc1ccc(Cl)cc1)c1ccc(Cl)cc1 (configuration not stated) — recorded TGI = > 100 µM

Entry CCCCCCc1cc2cc(C(=O)NCc3ccccc3)c(=N)oc2cc1O — recorded TGI = > 100 µM

Entry O=C1C(Cl)=C(Cl)C(=O)N1c1ccccc1Cl — recorded TGI = > 100 µM

Entry O=C(CCc1ccc(O)c(O)c1)NCCc1ccccc1 — recorded TGI = > 100 µM

Entry COc1ccc(Cc2cc(OC)c(OC)c(OC)c2)cc1 — recorded TGI = > 100 µM

====

# Test system: PC-3 prostate
# TEST_PROTOCOL: NCI tumour cell line growth inhibition, 48 h
OBSERVED_PROPERTY: TGI

The reported PC-3 prostate TGI of CON=C1C[C@]2(C[C@@H]3C[C@@H](C/C=C(\C)C[C@@H](C)/C=C/C=C4\CO[C@@H]5[C@H](O)C(C)=C[C@@H](C(=O)O3)[C@]45O)O2)O[C@H](/C(C)=C/C(C)C)[C@H]1C is 11.2 µM

The reported PC-3 prostate TGI of CC1NC(C(=O)O)Cc2cc(O)c(O)cc21 (configuration not stated) is > 100 µM

The reported PC-3 prostate TGI of O=C(NC(=O)c1ccccc1)OC(c1ccccc1)C1CO1 (configuration not stated) is > 100 µM

The reported PC-3 prostate TGI of CN1C(=O)/C(=C2\S/C(=N\c3nnc(-c4ccccc4)o3)NC2=O)c2ccccc21 is > 100 µM

The reported PC-3 prostate TGI of O=c1c2cccc(F)c2sc2c(NCCCNCCO)nc3ccccc3c12 is 3.31 µM

The reported PC-3 prostate TGI of O=C(NNC(=S)Nc1ccc(Cl)cc1)C12CC3CC(CC(C3)C1)C2 is 19.2 µM

The reported PC-3 prostate TGI of NC1=NCC(CN2CCCCC2)O1 (configuration not stated) is > 100 µM

The reported PC-3 prostate TGI of NS(=O)(=O)c1ccc(N=Nc2c(O)[nH]c3ccc(C(=O)NCCc4cnc[nH]4)cc23)cc1 is > 25 µM

The reported PC-3 prostate TGI of C=C1C(=O)O[C@@H]2C[C@@H]1CC[C@]1(C)O[C@H]1CC/C(C)=C/CC[C@@]2(C)O is > 100 µM

The reported PC-3 prostate TGI of Cc1ccc(C(=O)O)c(/C=C2\Cc3cc(C)cc(C)c3C2=O)c1 is > 100 µM

The reported PC-3 prostate TGI of Cc1ccc(S(=O)(=O)NN=C2C(C)(C)CC2(C)C)cc1 is > 100 µM

The reported PC-3 prostate TGI of NC(CP(=O)(O)O)C(=O)O (configuration not stated) is > 100 µM

====

# Tested on: ACHN renal
# TEST_PROTOCOL: NCI tumour cell line growth inhibition, 48 h
OBSERVED_PROPERTY: TGI (µM)
Respond numerically; units are µM and should not be typed.

Entry COc1ccc2nc3cc(Cl)ccc3c(NCCNCC(O)CO)c2c1 (stereo not drawn) — recorded TGI = 13.3

Entry O=C(COc1cccc(/C=C2\COc3ccccc3C2=O)c1)c1ccccc1 — recorded TGI = 5.18

Entry N#CC(c1ccccc1)N(CCc1ccccc1)C(=O)c1ccc(C(=O)N(CCc2ccccc2)C(C#N)c2ccccc2)cc1 (stereo not drawn) — recorded TGI = 73.5
